Field: Ki. System: Carbonic anhydrase 1 (Homo sapiens, UniProt P00915). Provenance: assorted publications.
quantity_kind: Ki (nM)

These solved cases illustrate the format of a correct answer.
Give reported Ki value for "Cc1c(CC(=O)Nc2ccc(S(N)(=O)=O)cc2)c(=O)oc2cc3occ(-c4ccccc4)c3cc12"
7020

Quick one: give measured Ki for O=S(=O)(NO)NC1C=C[C@H](O)CO1 (stereo not given in full)
927

Annotate the compound CCC(C)CC(=O)O (stereo not given) with its measured Ki.
104000

Read the entry "CCN(CC)CCNC(=O)c1cccc(S(=O)(=O)/N=c2/sc(S(N)(=O)=O)nn2C)c1" and write its reported Ki.
16

Consider the compound "CNCC(=O)Nc1ccc(S(N)(=O)=O)cc1I" and give its recorded Ki.
560

Give the measured Ki for "CCCCC(=O)OC[C@H]1O[C@@H](n2cc(-c3ccc(S(N)(=O)=O)cc3)nn2)[C@H](OC(=O)CCCC)[C@@H](OC(=O)CCCC)[C@@H]1OC(=O)CCCC"
9230

1. CCC(CC)C(=O)NCCc1ccc(S(N)(=O)=O)cc1
2. NS(=O)(=O)c1cc(S(N)(=O)=O)c(NC(=O)CN(CCOCCOCCN(CC(=O)O)CC(=O)Nc2cc(Cl)c(S(N)(=O)=O)cc2S(N)(=O)=O)CC(=O)O)cc1Cl
Input pair: 1 , 2 . Output: entry with lower Ki. // caller expects the label of the chosen entry
2
(2: 50 nM, 1: 407 nM)

1. CNCC(=O)Nc1ccc(S(N)(=O)=O)cc1
2. Cc1cc(-c2ccccc2)cc(C)[n+]1CC(=O)Nc1ccc(S(N)(=O)=O)cc1F
Exercise: compare 1 and 2 ; which one has the greater Ki? Answer = label.
1
(1: 15000 nM, 2: 700 nM)

I. Cn1nc(S(N)(=O)=O)s/c1=N/C(=O)CN(CCN(CC(=O)O)c1ccccc1O)c1ccccc1O
II. NS(=O)(=O)c1cccc(NC(=O)CNCC(=O)O)c1
III. COC(=O)c1ccc(/N=C/c2ccc(O)cc2)cc1
Put the items in order so that reported Ki rises from first to last. Put the labels in the requested order and write them down.
I, III, II
(I: 250 nM, III: 1040 nM, II: 23000 nM)

a. Cc1cc(C)c2c(c1)S(=O)(=O)NC(=O)N2
b. NS(=O)(=O)c1nnc(NC(=O)CC23CC4CC(CC(C4)C2)C3)s1
Rank a against b by their Ki values and give the higher one. // caller expects the label of the chosen entry
a
(a: 1270 nM, b: 362 nM)

1. NS(=O)(=O)c1ccccc1NSC(=S)N1CCOCC1
2. NS(=O)(=O)c1ccc(NC(=O)c2cc3ccccc3oc2=O)cc1
Compare Ki: is it lower for 1 or for 2 ? Lab log: write the label of the selected item as the result.
2
(2: 74 nM, 1: 11500 nM)

A. NS(=O)(=O)c1ccc(C(=O)N[C@H](C(=O)O)C(O)c2ccccc2)cc1 (stereo not given in full)
B. COc1ccc(N/N=C(\C(C)=O)C(=O)Nc2ccc(S(N)(=O)=O)cc2)cc1
C. NS(=O)(=O)c1ccc(NC(=O)CN(CCN(CC(=O)O)c2ccccc2O)c2ccccc2O)c(I)c1
Your job: order these 3 records by Ki, ascending. Please list the labels according to the requested order.
A, C, B

A. NS(=O)(=O)c1ccc(N/C(S)=N/CCC(=O)NC(Cc2c[nH]cn2)C(=O)O)cc1 (stereo not given)
B. CC(=O)OC[C@H]1O[C@@H](S(=O)(=O)NCc2ccc(S(N)(=O)=O)cc2)[C@H](OC(C)=O)[C@@H](OC(C)=O)[C@@H]1OC(C)=O
Please compare: A and B . Report which one has the smaller Ki value. Respond with the label that goes with your answer.
A
(A: 23 nM, B: 120 nM)

A. NS(=O)(=O)c1ccc(-c2ccc3ccccc3c2)cc1
B. CC1(C)OB(c2ccc(N/C(S)=N/c3ccc(S(N)(=O)=O)cc3F)cc2)OC1(C)C
Hi there! Just curious which has the higher Ki between A and B . Respond using the label that marks the chosen record.
A
(A: 1000 nM, B: 77 nM)
